Recorded measurements of Mice surviving 60 days/Mice infected and treated, one per entry
# System: P. berghei
# Test: Suppressive blood schizontocidal test, single subcutaneous dose, P. berghei in mice
# Format: in vivo, mouse
# Experimental parameters: single subcutaneous dose 32 mg/kg, 72 h after infection
Observable: Mice surviving 60 days/Mice infected and treated

# Compound, Tgt, Result
rows = [
    ("O=C(CC1NCCC1O)Cn1cnc2ccncc2c1=O (centres unmarked) [Compound II]", "P. berghei", "5/5"),
    ("O=C(CC1NCCC1O)Cn1cnc2cccc(F)c2c1=O (centres unmarked) [Compound III]", "P. berghei", "5/5"),
    ("O=C(CC1NCCC1O)Cn1cnc2ccc(F)c(F)c2c1=O (centres unmarked) [Compound IV]", "P. berghei", "5/5"),
    ("O=C(CC1NCCC1O)Cn1cnc2cccc(C(F)(F)F)c2c1=O (centres unmarked) [Compound V]", "P. berghei", "5/5"),
    ("O=C(CC1NCCC1O)Cn1cnc2cccnc2c1=O (centres unmarked) [Compound I]", "P. berghei", "5/5"),
]
